Target: CFTR-mediated chloride transport (Homo sapiens, UniProt P13569)
Test: Corrector Assay A - membrane potential dye assay (enteroid cells)
Conditions: % of chloride transport of triple combination control (1 μM (14S)-dispiro macrocycle + 3 μM tezacaftor + 300 nM ivacaftor)
reported-metric: Corrector Assay A % activity

Solved entries (count: 10):
>  <compound>
CC(C)(C)c1ccc2c(n1)N1CC(CCCNc3cncc(n3)S(=O)(=O)NC2=O)CC1(C)C (single isomer, unassigned) [Compound 253]

>  <study-target>
CFTR-mediated chloride transport (Homo sapiens, UniProt P13569)

>  <reported-metric>
Corrector Assay A % activity

>  <measurement>
+ (+ is <30%)

$$$$
>  <compound>
CC1(C)C[C@@H]2CC[C@H](c3ccccn3)Nc3cccc(n3)S(=O)(=O)NC(=O)c3ccc(-n4ccc(OCC5CC5)n4)nc3N1C2

>  <study-target>
CFTR-mediated chloride transport (Homo sapiens, UniProt P13569)

>  <reported-metric>
Corrector Assay A % activity

>  <measurement>
+++ (+++ is >60%)

$$$$
>  <compound>
CC(C)(C)c1ccc2c(n1)N1C[C@@H](CCC(c3ccc(CO)cn3)Nc3cccc(n3)S(=O)(=O)NC2=O)CC1(C)C (some centres unmarked) [Compound 78]

>  <study-target>
CFTR-mediated chloride transport (Homo sapiens, UniProt P13569)

>  <reported-metric>
Corrector Assay A % activity

>  <measurement>
+++ (+++ is >60%)

$$$$
>  <compound>
CC(C)(C)c1ccnc(C2CC[C@@H]3CN(c4nc(C(C)(C)C)ccc4C(=O)NS(=O)(=O)c4cccc(n4)N2)C(C)(C)C3)c1 (single isomer, unassigned) [Compound 75]

>  <study-target>
CFTR-mediated chloride transport (Homo sapiens, UniProt P13569)

>  <reported-metric>
Corrector Assay A % activity

>  <measurement>
+++ (+++ is >60%)

$$$$
>  <compound>
CC(C)(C)c1ccc2c(n1)N1C[C@@H](CCC(c3cc(Cl)ccn3)Nc3cccc(n3)S(=O)(=O)NC2=O)CC1(C)C (single isomer, unassigned) [Compound 128]

>  <study-target>
CFTR-mediated chloride transport (Homo sapiens, UniProt P13569)

>  <reported-metric>
Corrector Assay A % activity

>  <measurement>
+++ (+++ is >60%)

$$$$
>  <compound>
CC1CCC2CN(c3nc(C(C)(C)C)ccc3C(=O)NS(=O)(=O)c3ccn1n3)C(C)(C)C2 (single isomer, unassigned) [Compound 272]

>  <study-target>
CFTR-mediated chloride transport (Homo sapiens, UniProt P13569)

>  <reported-metric>
Corrector Assay A % activity

>  <measurement>
+++ (+++ is >60%)

$$$$
>  <compound>
CC(C)(C)c1ccc2c(n1)N1C[C@@H](CC[C@H](c3cccc(C4CCOCC4)n3)Nc3cccc(n3)S(=O)(=O)NC2=O)CC1(C)C

>  <study-target>
CFTR-mediated chloride transport (Homo sapiens, UniProt P13569)

>  <reported-metric>
Corrector Assay A % activity

>  <measurement>
+++ (+++ is >60%)

$$$$
>  <compound>
CC(C)(C)c1ccc2c(n1)N1C[C@@H](CC[C@H](c3cccc(N4CCOCC4)n3)Nc3cccc(n3)S(=O)(=O)NC2=O)CC1(C)C

>  <study-target>
CFTR-mediated chloride transport (Homo sapiens, UniProt P13569)

>  <reported-metric>
Corrector Assay A % activity

>  <measurement>
+++ (+++ is >60%)

$$$$
>  <compound>
CC1(C)CC=C(c2ccc3c(n2)N2C[C@@H](CC[C@H](c4ccccn4)Nc4cccc(n4)S(=O)(=O)NC3=O)CC2(C)C)CC1

>  <study-target>
CFTR-mediated chloride transport (Homo sapiens, UniProt P13569)

>  <reported-metric>
Corrector Assay A % activity

>  <measurement>
+++ (+++ is >60%)

$$$$
>  <compound>
CC(C)(C)c1ccc2c(n1)N1C[C@@H](CCC(c3cc(Br)ccn3)Nc3cccc(n3)S(=O)(=O)NC2=O)CC1(C)C (single isomer, unassigned) [Compound 46]

>  <study-target>
CFTR-mediated chloride transport (Homo sapiens, UniProt P13569)

>  <reported-metric>
Corrector Assay A % activity

>  <measurement>
+++ (+++ is >60%)

$$$$

Write down the reported Corrector Assay A % activity of CC(C)(C)c1ccc2c(n1)N1C[C@@H](CCC(c3cc(Cl)ccn3)Nc3cccc(n3)S(=O)(=O)NC2=O)CC1(C)C (single isomer, unassigned) [Compound 127] , test system: CFTR-mediated chloride transport (Homo sapiens, UniProt P13569).
+++ (+++ is >60%)

Request: COC[C@@H]1CC[C@@H]2CN(c3nc(C(C)(C)C)ccc3C(=O)NS(=O)(=O)c3cccc(n3)N1)C(C)(C)C2 (single isomer, unassigned) [Compound 276]
++ (++ is 30-60%)

Request: COCCc1ccc(C2CC[C@@H]3CN(c4nc(C(C)(C)C)ccc4C(=O)NS(=O)(=O)c4cccc(n4)N2)C(C)(C)C3)nc1 (some centres unmarked) [Compound 111]
++ (++ is 30-60%)

Request: CC(C)Cc1ccc(C2CC[C@@H]3CN(c4nc(C(C)(C)C)ccc4C(=O)NS(=O)(=O)c4cccc(n4)N2)C(C)(C)C3)nc1 (some centres unmarked) [Compound 181]
++ (++ is 30-60%)

Request: CC(C)(C)c1cccc(C2CC[C@@H]3CN(c4nc(C(C)(C)C)ccc4C(=O)NS(=O)(=O)c4cccc(n4)N2)C(C)(C)C3)n1 (single isomer, unassigned) [Compound 178]
+ (+ is <30%)

Request: CC1(C)C[C@@H]2CC[C@H](c3ccccn3)Nc3cccc(n3)S(=O)(=O)NC(=O)c3ccc(-c4c(F)cccc4Cl)nc3N1C2
+++ (+++ is >60%)

Request: CC1(C)C[C@@H]2CC[C@@H](c3ccccn3)Nc3cccc(n3)S(=O)(=O)NC(=O)c3ccc(Br)nc3N1C2
+ (+ is <30%)

Request: CC(C)(C)COc1cccc(-c2ccc3c(n2)N2C[C@@H](CC[C@H](c4ccccn4)Nc4cccc(n4)S(=O)(=O)NC3=O)CC2(C)C)n1
+++ (+++ is >60%)

Request: CN1CCC(C2CC[C@@H]3CN(c4nc(C(C)(C)C)ccc4C(=O)NS(=O)(=O)c4cccc(n4)N2)C(C)(C)C3)CC1 (single isomer, unassigned) [Compound 241]
++ (++ is 30-60%)

Request: Cn1ccc(-c2ccc(C3CC[C@@H]4CN(c5nc(C(C)(C)C)ccc5C(=O)NS(=O)(=O)c5cccc(n5)N3)C(C)(C)C4)nc2)n1 (some centres unmarked) [Compound 60]
+++ (+++ is >60%)
